Where these numbers come from: patent US11364242B2

Field: EC50. Provide a value for each of the compounds that follow.
# System: HIV-1 BaL
# Procedure text: Antiretroviral potency with and without INK128 in PBLs infected with HIV BaL
# Format: cell-based
# Reported conditions: Human immunodeficiency virus 1, BAL, PBMC, No INK128; PBMCs, two donors; read-out: EC50 (geometric mean)
Your answer should be a plain number; it is taken to be in nM.

Annotate the compound CC(C)(C)NC(=O)[C@@H]1CN(Cc2cccnc2)CCN1C[C@@H](O)C[C@@H](Cc1ccccc1)C(=O)N[C@H]1c2ccccc2C[C@H]1O with its measured EC50. 3.84

Annotate the compound O=C1Nc2ccc(Cl)cc2[C@@](C#CC2CC2)(C(F)(F)F)O1 with its measured EC50. 0.52

###

# Tested on: HIV-1 1638
# Procedure text: PBL infectivity assay, primary isolate
# Assay type: cell-based
# Reported conditions: Human immunodeficiency virus 1, PBMC; X4 primary isolate, PBMCs, three donors; read-out: Geometric mean INK128 EC50, nM (95% CI)
Readout type: EC50 (nM)
Your answer should be a plain number; it is taken to be in nM.

Annotate the compound CC(C)n1nc(-c2ccc3oc(N)nc3c2)c2c(N)ncnc21 with its measured EC50. 21.2
